Where do the numbers come from? From ChEMBL document CHEMBL1201862.

Measured GI50 accompanies every entry in the list below.
# System: OVCAR-8
# Test Method Notes: NCI tumour cell line growth inhibition, 48 h
Active and inactive are the calls of the source. Cut-off read from the data, not from the text of the source: active = GI50 up to about 1.1 µM and inactive = higher.

CCn1c2ccc(O)c(C(=O)OC)c2c2cc3ccccc3c(O)c21    17.4 µM (inactive)
CC(=O)c1ccc(NC(=O)/C(CC(=O)/C=C/c2ccccc2)=N/NC(N)=S)cc1    87.7 µM (inactive)
NC1=NN(c2ccccc2)C(=O)C1C(=O)C(=O)Nc1cccc(C(F)(F)F)c1 (stereo not given)    > 100 µM (inactive)

Consider the compound Cc1ccc2c(c1C)C(=O)/C(=C/c1cccc(C)c1C(=O)O)C2 . State its measured GI50.
86.5 µM (inactive)

Consider the compound COC(=O)Oc1nn(C(=O)OC)c(=O)c2ccccc12 and give its recorded GI50.
> 100 µM (inactive)

Please indicate GI50 recorded for C=CCCCCNC(=O)C[C@@H]1C2=C(CC[C@H]1O[Si](C)(C)C(C)(C)C)N1C(=O)CCC/C=C\C1C2 (stereo not given in full)
14.9 µM (inactive)

Give the reported value of GI50 for this record: CCCC(=O)CC(C)C(=O)C(=O)NC12CC3CC(CC(C3)C1)C2 (stereo not given)
> 100 µM (inactive)

Give recorded GI50. COc1ccc(Nc2cnc3cc(N)ccc3n2)cc1OC
37.4 µM (inactive)

Query GI50 for Cc1cccc(C)c1NC(=O)CCCC(=O)C1CCC/C1=N\NC(=O)C(=O)NN (stereo not given)
> 100 µM (inactive)

Return GI50 for the following compound: N#CC(C#N)=C1CCC2C(=C(C#N)C#N)CCC12 (stereo not given)
> 100 µM (inactive)
